molecular target: PTPRJ (Homo sapiens); construct: purchased; test: pNPP hydrolysis by PTPRJ phosphatase; type: biochemical; details: Table 4; mean (SEM) of three independent experiments; * = instability, no valid triplicate
Sequence (Q12913 36-1337, species assumed): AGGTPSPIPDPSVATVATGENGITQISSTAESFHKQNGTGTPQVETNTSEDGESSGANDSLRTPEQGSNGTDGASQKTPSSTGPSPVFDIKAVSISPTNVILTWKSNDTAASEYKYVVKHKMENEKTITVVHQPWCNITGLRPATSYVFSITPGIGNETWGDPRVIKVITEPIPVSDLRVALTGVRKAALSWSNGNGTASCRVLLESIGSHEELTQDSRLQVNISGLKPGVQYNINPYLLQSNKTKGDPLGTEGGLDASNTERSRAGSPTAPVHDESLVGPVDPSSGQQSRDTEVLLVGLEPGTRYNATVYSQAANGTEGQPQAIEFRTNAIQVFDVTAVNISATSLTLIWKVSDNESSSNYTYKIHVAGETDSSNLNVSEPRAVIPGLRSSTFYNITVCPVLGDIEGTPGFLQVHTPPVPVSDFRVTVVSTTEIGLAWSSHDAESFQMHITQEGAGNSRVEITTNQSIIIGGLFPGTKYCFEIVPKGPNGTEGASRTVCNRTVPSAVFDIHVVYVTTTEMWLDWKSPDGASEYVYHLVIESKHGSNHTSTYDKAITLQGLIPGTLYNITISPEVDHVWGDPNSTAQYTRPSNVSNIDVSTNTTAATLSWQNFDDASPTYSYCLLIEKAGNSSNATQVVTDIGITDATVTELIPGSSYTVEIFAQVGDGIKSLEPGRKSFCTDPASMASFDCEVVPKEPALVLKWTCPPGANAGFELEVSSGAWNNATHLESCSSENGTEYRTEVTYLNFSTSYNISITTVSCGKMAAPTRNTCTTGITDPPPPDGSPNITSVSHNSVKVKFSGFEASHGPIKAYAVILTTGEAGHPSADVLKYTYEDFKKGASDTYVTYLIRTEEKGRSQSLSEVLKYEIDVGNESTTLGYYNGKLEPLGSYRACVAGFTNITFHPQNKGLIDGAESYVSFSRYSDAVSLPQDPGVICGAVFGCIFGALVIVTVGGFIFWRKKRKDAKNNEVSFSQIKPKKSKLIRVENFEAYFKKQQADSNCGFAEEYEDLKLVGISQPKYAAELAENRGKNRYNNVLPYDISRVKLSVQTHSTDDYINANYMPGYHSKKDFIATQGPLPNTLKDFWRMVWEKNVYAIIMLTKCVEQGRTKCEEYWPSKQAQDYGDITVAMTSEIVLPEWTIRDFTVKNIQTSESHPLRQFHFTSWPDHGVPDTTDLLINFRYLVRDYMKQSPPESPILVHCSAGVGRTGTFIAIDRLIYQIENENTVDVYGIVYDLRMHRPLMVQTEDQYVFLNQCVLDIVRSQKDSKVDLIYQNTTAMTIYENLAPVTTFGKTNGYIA
pIC50: −log10 of the molar value.
PARAMETER_MEASURED: pIC50

Use these answered entries as a reference point.
COc1c(OCCCCc2ccc(Cl)cc2)cc2c(c1C=O)CC(O)OC2=O (centres unmarked) [Compound 53]    4.54
COc1c(OCc2ccccc2)cc2c(c1C=O)CC(O)OC2=O (centres unmarked) [Compound 27]    4.33

A. COc1c(OCc2ccc(Cl)cc2Cl)cc2c(c1C=O)CC(O)OC2=O (centres unmarked) [Compound 40]
B. COc1c(OCc2ccc(C)cc2)cc2c(c1C=O)CC(O)OC2=O (centres unmarked) [Compound 29]
C. COc1c(OCc2c(Cl)cc(Cl)cc2Cl)cc2c(c1C=O)CC(O)OC2=O (centres unmarked) [Compound 42]
Rank items: key pIC50, increasing. In plain terms: list the labels in the order you were asked to.
B, C, A
(B: 4.42, C: 4.63, A: 4.84)
